Known MIC, strain ID C of a selection of compounds
Test system: Staphylococcus epidermidis Step_14990
experimentalProtocol: MIC, broth microdilution (NCCLS)
Assay type: cell-based
protocolConditions: strain ID C; broth microdilution; in µg/mL (unit assumed)
Procedure: Strains. The bacterial isolates listed in Table 4 were cultivated from −70° C. frozen stocks by two consecutive overnight passages (P1, P2) at 35° C. on 5% blood agar (Remel, Lenexa, Kans.). Chocolate agar (Remel) is used for Haemophilus influenzae. H. influenzae and Streptococcus pneumoniae are incubated in 5-10% CO2 Drug Stock Preparation. […] Susceptibility Testing. MICs are determined by the broth microdilution method in accordance with the NCCLS guidelines. […]
resultType: MIC, strain ID C

>>> observedresult("C#C[C@]12OC(=O)N(CCCCn3cnc(-c4ccc(C)nc4)c3)[C@@H]1[C@@H](C)C(=O)[C@H](C)C[C@](C)(OC)[C@H](OC1O[C@H](C)C[C@H](N(C)C)[C@H]1O)[C@@H](C)C(=O)[C@@H](C)C(=O)O[C@@H]2CC (stereo partly shown)")
0.2
>>> observedresult("CC[C@H]1OC(=O)[C@H](C)C(=O)[C@H](C)[C@@H](OC2O[C@H](C)C[C@H](N(C)C)[C@H]2O)[C@@](C)(OC)C[C@@H](C)C(=O)[C@H](C)[C@@H]2[C@@H]1OC(=O)N2CCCCn1cnc(-c2ccc(Cl)nc2)c1 (stereo partly shown)")
0.1
>>> observedresult("C#C[C@]12OC(=O)N(CCCCn3cnc(-c4ccc(Cl)nc4)c3)[C@@H]1[C@@H](C)C(=O)[C@H](C)C[C@](C)(OC)[C@H](OC1O[C@H](C)C[C@H](N(C)C)[C@H]1O)[C@@H](C)C(=O)[C@@H](C)C(=O)O[C@@H]2CC (stereo partly shown)")
0.1
>>> observedresult("C=C[C@]12OC(=O)N(CCCCn3cnc(-c4cnccc4Cl)c3)[C@@H]1[C@@H](C)C(=O)[C@H](C)C[C@](C)(OC)[C@H](OC1O[C@H](C)C[C@H](N(C)C)[C@H]1O)[C@@H](C)C(=O)[C@@H](C)C(=O)O[C@@H]2CC (stereo partly shown)")
0.2

###

Test system: Streptococcus pyogenes Stpy_8668
experimentalProtocol: MIC, broth microdilution (NCCLS)
Assay type: cell-based
Parameters: unit not given beside the values
protocolConditions: strain ID G; broth microdilution
resultType: MIC, strain ID G

>>> observedresult("CC[C@H]1OC(=O)[C@H](C)C(=O)[C@H](C)[C@@H](OC2O[C@H](C)C[C@H](N(C)C)[C@H]2O)[C@@](C)(OC)C[C@@H](C)C(=O)[C@H](C)[C@@H]2[C@@H]1OC(=O)N2CCCCn1cnc(-c2ccc(Cl)nc2)c1 (stereo partly shown)")
"=0.05"
>>> observedresult("C#C[C@]12OC(=O)N(CCCCn3cnc(-c4ccc(C)nc4)c3)[C@@H]1[C@@H](C)C(=O)[C@H](C)C[C@](C)(OC)[C@H](OC1O[C@H](C)C[C@H](N(C)C)[C@H]1O)[C@@H](C)C(=O)[C@@H](C)C(=O)O[C@@H]2CC (stereo partly shown)")
"=0.05"
>>> observedresult("C#C[C@]12OC(=O)N(CCCCn3cnc(-c4ccc(OC)nc4)c3)[C@@H]1[C@@H](C)C(=O)[C@H](C)C[C@](C)(OC)[C@H](OC1O[C@H](C)C[C@H](N(C)C)[C@H]1O)[C@@H](C)C(=O)[C@@H](C)C(=O)O[C@@H]2CC (stereo partly shown)")
"=0.05"
>>> observedresult("C=C[C@]12OC(=O)N(CCCCn3cnc(-c4ccc(Cl)nc4)c3C)[C@@H]1[C@@H](C)C(=O)[C@H](C)C[C@](C)(OC)[C@H](OC1O[C@H](C)C[C@H](N(C)C)[C@H]1O)[C@@H](C)C(=O)[C@@H](C)C(=O)O[C@@H]2CC (stereo partly shown)")
"=0.05"
